IC50 for glutaminase (GAC) (Homo sapiens, UniProt O94925), merged from several publications.

- MOLECULE: "N#Cc1ccc(CC(=O)Nc2nnc(C3CCC(c4nnc(NC(=O)Cc5ccc(C#N)cc5)s4)C3)s2)cc1 (centres unmarked)"
  IC50: "100 to 500 nM"
- MOLECULE: "O=C(Cc1ccccc1)Nc1nnc([C@@H]2CC[C@H](c3nnc(NC(=O)Cc4ccccc4)s3)C2)s1"
  IC50: "1000 to 2000 nM"
- MOLECULE: "COc1ccc(CC(=O)Nc2nnc(C3CCC(c4nnc(NC(=O)Cc5ccc(OC)cc5)s4)C3)s2)cc1 (centres unmarked)"
  IC50: "100 to 500 nM"
- MOLECULE: "CC(C)Oc1cccc(CC(=O)Nc2nnc([C@H]3CCC[C@H](c4nnc(NC(=O)Cc5cccc(OC(C)C)c5)s4)C3)s2)c1"
  IC50: "100 to 500 nM"
- MOLECULE: "Nc1ccc(CC(=O)Nc2nnc([C@H]3CCC[C@H](c4nnc(NC(=O)Cc5ccc(N)cc5)s4)C3)s2)cc1"
  IC50: "< 100 nM"
- MOLECULE: "O=C(CC1NC(=O)NC1=O)Nc1nnc(CCCCc2nnc(NC(=O)CC3NC(=O)NC3=O)s2)s1 (centres unmarked)"
  IC50: "100 to 500 nM"
- MOLECULE: "O=C(CCc1ccccc1Cl)Nc1nnc(CCCCc2nnc(NC(=O)CCc3ccccc3Cl)s2)s1"
  IC50: "100 to 500 nM"
- MOLECULE: "COc1cccc(CC(=O)Nc2nnc(C3CCCCC(c4nnc(NC(=O)Cc5cccc(OC)c5)s4)C3)s2)c1 (centres unmarked)"
  IC50: "500 to 1000 nM"
- MOLECULE: "O=C(Nc1nnc(CCCCc2nnc(NC(=O)C3CCC3)s2)s1)C1CCC1"
  IC50: "500 to 1000 nM"
- MOLECULE: "NCc1ccc(CC(=O)Nc2nnc([C@H]3CCC[C@H](c4nnc(NC(=O)Cc5ccc(CN)cc5)s4)C3)s2)cc1"
  IC50: "< 100 nM"
- MOLECULE: "COc1ccccc1CC(=O)Nc1nnc(C2CCCCC(c3nnc(NC(=O)Cc4ccccc4OC)s3)C2)s1 (centres unmarked)"
  IC50: "1000 to 2000 nM"
- MOLECULE: "O=C(Cc1cccnc1)Nc1nnc(C/C=C/Cc2nnc(NC(=O)Cc3cccnc3)s2)s1"
  IC50: "< 100 nM"
- MOLECULE: "COc1ccccc1CC(=O)Nc1nnc([C@@H]2CC[C@@H](c3nnc(NC(=O)Cc4ccccc4OC)s3)C2)s1 (stereo in doubt)"
  IC50: "< 100 nM"
- MOLECULE: "CS(=O)(=O)Nc1ccc(CC(=O)Nc2nnc([C@H]3CCC[C@H](c4nnc(NC(=O)Cc5ccc(NS(C)(=O)=O)cc5)s4)C3)s2)cc1"
  IC50: "< 100 nM"
